// values below are reported Emax at 30 µM
systemUnderTest: Human M4 (Homo sapiens)
Construct: expressed in transfected cells
Sequence (P08173 whole entry): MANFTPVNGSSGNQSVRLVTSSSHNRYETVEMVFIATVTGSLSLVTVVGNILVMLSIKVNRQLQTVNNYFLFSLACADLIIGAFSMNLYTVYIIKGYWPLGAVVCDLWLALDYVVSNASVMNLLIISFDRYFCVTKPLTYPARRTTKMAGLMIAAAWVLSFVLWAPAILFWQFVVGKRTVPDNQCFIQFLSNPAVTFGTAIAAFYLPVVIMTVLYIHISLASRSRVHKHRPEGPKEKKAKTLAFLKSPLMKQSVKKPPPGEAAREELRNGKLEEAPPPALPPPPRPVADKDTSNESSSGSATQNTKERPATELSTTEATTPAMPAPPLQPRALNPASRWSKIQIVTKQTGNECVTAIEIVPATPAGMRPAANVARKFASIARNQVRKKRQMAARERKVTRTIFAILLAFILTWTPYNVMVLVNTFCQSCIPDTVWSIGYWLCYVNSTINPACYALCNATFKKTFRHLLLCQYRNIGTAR
test: mAChR M4 cell-based functional assay (calcium flux, potentiation of EC20 acetylcholine response), hM4-Gqi5 CHO-K1 cells
conditionsUsed: CHO-K1; Table 3; Human M4; % ACh maximum at 30 μM; read-out: Emax (% ACh maximum at 30 μM)
Description: […] Calcium flux was measured using the Functional Drug Screening System (FDSS) 6000 or 7000 (Hamamatsu Corporation, Tokyo, Japan) as an increase in the fluorescent static ratio. […] Agonist activity was analyzed as a concentration-dependent increase in calcium mobilization upon compound addition. Positive allosteric modulator activity was analyzed as a concentration-dependent increase in the EC20 acetylcholine response. […]
Respond numerically; units are % and should not be typed.

# count of solved cases: 3
1) Cc1c(N2CCc3ncc(-c4ccc(N5CC[C@@H](F)C5)nc4)cc3C2)nn2c(C(F)(F)F)nnc2c1C [Compound 249]    65
2) Cc1c(N2CCc3ncc(OCC4CC(F)(F)C4)cc3C2)nn2cnnc2c1C [Compound 263]    79
3) Cc1cnc2c(c1)CN(c1nn3cc(C(=O)N4CCOCC4)nc3cc1C)CC2 [Compound 162]    105

Enquiry: Fill blank: measured Emax at 30 µM of the compound Cc1cc2nnc(C(F)(F)F)n2nc1N1CCc2ncc(Oc3cc(F)ccc3F)cc2C1 [Compound 298] is ____.
Return: 109

Enquiry: Lookup Cc1c(N2CCc3ncc(C(C)(C)O)cc3C2)nn2c(C(F)(F)F)nnc2c1C [Compound 219]
Return: 81

Enquiry: Could you do the same for Cc1cc2nncn2nc1N1CCc2ncc(Nc3nsc4ncccc34)cc2C1 [Compound 203] , please?
Return: 35

Enquiry: Also Cc1c(N2CCc3ncc(OCC4COC4)cc3C2)nn2cnnc2c1C [Compound 262] , if possible.
Return: 82
